# System: HOP-92 NSCLC
# Experimental Protocol: NCI tumour cell line growth inhibition, 48 h
Recorded Metric: TGI

Enquiry: Requested field: TGI. Item: O=c1oc2ccccc2cc1-c1csc(Nc2cc(Cl)cc(Cl)c2)n1
Return: > 58.3 µM

Enquiry: Requested field: TGI. Item: O=[N+]([O-])c1cccc(/C=C/c2ccccn2)c1
Return: > 100 µM

Enquiry: Requested field: TGI. Item: CC(C)[C@H]1CO[C@@H]2O[C@H](C)CC(=O)N21
Return: > 100 µM

Enquiry: Requested field: TGI. Item: O=[N+]([O-])c1ccc(/C=N\Nc2ccc([N+](=O)[O-])cn2)cc1
Return: > 100 µM

Enquiry: Requested field: TGI. Item: CCOC(=O)NC(Nc1ccc(F)c(F)c1)(C(=O)OCC)C(F)(F)F (stereo unspecified)
Return: > 100 µM

Enquiry: Requested field: TGI. Item: COc1ccc2c(c1)CC[C@@H]1[C@@H]2CC[C@]2(C)c3[nH]ncc3C[C@@H]12
Return: > 50 µM

---

# Tested on: U251 CNS
Use one of these outcomes when replying: Yes for active, No for inactive

Enquiry: Would you mind telling me which call this test gave FC(F)(F)c1[nH]ncc1-c1nc2c(N3CCCCC3)cc3[nH]ncc3c2c2c1CCCC2 ?
Return: No

Enquiry: Would you mind telling me which call this test gave N.N.N.N.N.N#N.[Cl-].[Os+7] ?
Return: No

Enquiry: Would you mind telling me which call this test gave COc1ccc2c(c1)C(=O)c1c-2c(OCCN(C)C)nc2cc(OC)ccc12 ?
Return: No

Enquiry: Would you mind telling me which call this test gave CN1C(=O)N(C)C2C1NN=c1s/c(=C\c3c[nH]c4ccccc34)c(=O)n12 (configuration not stated) ?
Return: Yes

Enquiry: Would you mind telling me which call this test gave COc1cc(C(C)(C)C)cc(OC)c1C(O)(c1c(OC)cc(C(C)(C)C)cc1OC)c1c(OC)cc(C(C)(C)C)cc1OC ?
Return: Yes

Enquiry: Would you mind telling me which call this test gave COc1cc(CNc2nc3cc(N)cc(N)c3nc2-c2ccccc2)cc(OC)c1OC ?
Return: No

Enquiry: Would you mind telling me which call this test gave COc1cc2cn3c4ccc(O)cc4nc(N)c3c2cc1OC ?
Return: Yes

---

For each entry below, report its GI50 value.
# System: A549 NSCLC
# Experimental Protocol: NCI tumour cell line growth inhibition, 48 h

Enquiry: Requested field: GI50. Item: N.N.N.N.N.N#N.[Cl-].[Os+7]
Return: > 100000 nM

Enquiry: Requested field: GI50. Item: Cc1ccc(Nc2[nH]c(C(=O)c3ccc(Cl)cc3)c(N)c2C(=S)Nc2ccccc2)nc1
Return: 37700 nM

Enquiry: Requested field: GI50. Item: CN(C)CCNC(=O)c1cccc2cc([N+](=O)[O-])ccc12
Return: 183 nM

Enquiry: Requested field: GI50. Item: COc1ccc(N2CCN(CN3CCN(c4ccc(OC)cc4)C3)C2)cc1
Return: > 100000 nM

Enquiry: Requested field: GI50. Item: COc1ccc(-c2nn(-c3ccc(NC(=O)Nc4ccc(Cl)c(Cl)c4)cc3)cc2-c2ccncc2)cc1Cl
Return: 1560 nM

Enquiry: Requested field: GI50. Item: COc1cc(OC)cc(-c2ccc(-c3ccc(C(=N)N)s3)s2)c1
Return: 1630 nM

---

# Tested on: M14 melanoma
# Experimental Protocol: NCI tumour cell line growth inhibition, 48 h
Recorded Metric: TGI

Enquiry: Requested field: TGI. Item: COc1ccccc1-c1ccc2nc(NC(=O)Nc3cc(C(F)(F)F)cc(C(F)(F)F)c3)sc2c1
Return: 3.22 µM

Enquiry: Requested field: TGI. Item: Cc1cc(O)c(C2=NN(c3ccc(S(N)(=O)=O)cc3)C(c3ccccc3O)C2)cc1Cl (stereo not given)
Return: 3.39 µM

Enquiry: Requested field: TGI. Item: O=C1N(CN2CCOCC2)CN(CN2CCOCC2)C(=O)N1Cc1ccc(-c2ccc(CN3C(=O)N(CN4CCOCC4)CN(CN4CCOCC4)C3=O)cc2)cc1
Return: 21.3 µM

Enquiry: Requested field: TGI. Item: C/C1=N\NC(=O)c2ccccc2C(=O)N/N=C(\C)c2cccc1n2.O=[N+]([O-])[O-].[Zn+2]
Return: > 100 µM

Enquiry: Requested field: TGI. Item: COc1cccc(CCn2c(N)c(C(=O)O)c3ccc([N+](=O)[O-])cc3c2=O)c1
Return: > 100 µM

Enquiry: Requested field: TGI. Item: COc1ccc2c(c1)CCC(CN1CCN(CCOC(c3ccc(F)cc3)c3ccc(F)cc3)CC1)C2O (stereo not given)
Return: 25.5 µM

Enquiry: Requested field: TGI. Item: O=[N+]([O-])c1cccc(/C=C/c2ccccn2)c1
Return: > 100 µM

Enquiry: Requested field: TGI. Item: CCCCC1C(=O)N(c2ccc(S(=O)(=O)Nc3ccccn3)cc2)N(c2ccc(O)c(C(=O)O)c2)C1=O (stereo not given)
Return: > 100 µM

Enquiry: Requested field: TGI. Item: C=C1C(=O)CCC1C(=O)O (stereo not given)
Return: > 100 µM

Enquiry: Requested field: TGI. Item: COc1cc[c]([Sb]([Br])([CH]=C(C)C)([CH]=C(C)C)[CH]=C(C)C)cc1
Return: 42.5 µM

---

# Test system: K-562 leukemia
# Experimental Protocol: NCI tumour cell line growth inhibition, 48 h
For each entry below, report its TGI value.
The answer is to be given in µM; state only the numeric part.

Enquiry: Please provide the recorded TGI for CN(C)Cc1cc(C(=O)/C=C/c2ccc(Br)cc2)cc(CN(C)C)c1O , tested on K-562 leukemia.
Return: 10.8

Enquiry: Please provide the recorded TGI for CCCCCCCCCCCCOC1C(CNCC2OC3OC(C)(C)OC3C2NC(=O)Nc2ccc(C(F)(F)F)cc2)OC2OC(C)(C)OC21 (stereo not given) , tested on K-562 leukemia.
Return: 2.62

---

# Test system: MCF7 breast
# Experimental Protocol: NCI tumour cell line growth inhibition, 48 h
For each entry below, report its TGI value.

Enquiry: Requested field: TGI. Item: Cc1ccc(Nc2[nH]c(C(=O)c3ccc(Cl)cc3)c(N)c2C(=S)Nc2ccccc2)nc1
Return: > 100 µM

Enquiry: Requested field: TGI. Item: COc1ccc(C2=CC(c3ccc(Oc4ccnc5cc(Cl)ccc45)c(OC)c3)c3c(nc(OC)[nH]c3=O)N2)cc1 (stereo not drawn)
Return: > 100 µM

Enquiry: Requested field: TGI. Item: CC1=CSC(O)(c2ccc(Cl)cc2)c2noc(=O)n21 (stereo not drawn)
Return: > 100 µM

---

# System: NCI-H460 lung
# Experimental Protocol: NCI tumour cell line growth inhibition, 48 h
Recorded Metric: TGI

Enquiry: Requested field: TGI. Item: COc1cc[c]([Sb]([Br])([CH]=C(C)C)([CH]=C(C)C)[CH]=C(C)C)cc1
Return: 54.5 µM

Enquiry: Requested field: TGI. Item: Cc1cc(C(=O)N[C@@H](CCC(=O)O)C(=O)O)sc1CC[C@@H]1CNc2nc(N)[nH]c(=O)c2C1
Return: > 100 µM

Enquiry: Requested field: TGI. Item: c1ccc(CN2CCCN3CCN(CCCN(Cc4ccccc4)CC3)CC2)cc1
Return: > 100 µM

Enquiry: Requested field: TGI. Item: OC(COc1cccc2ccccc12)CN1CCN(c2ccc(Cl)cc2)CC1 (centres undefined)
Return: > 100 µM

---

# Tested on: SN12C renal
# Experimental Protocol: NCI tumour cell line growth inhibition, 48 h
Recorded Metric: TGI

Enquiry: Requested field: TGI. Item: c1ccc(CN2CCCN3CCN(CCCN(Cc4ccccc4)CC3)CC2)cc1
Return: > 100 µM

Enquiry: Requested field: TGI. Item: CC1C(/C=C/c2ccoc2)ON2CCCC12 (stereo not drawn)
Return: > 100 µM

Enquiry: Requested field: TGI. Item: COc1cc(/C=C/C(=O)NC[C@]2(O)CCC3C4CCc5cc(O)ccc5C4CCC32C)ccc1O (stereo partly drawn)
Return: > 100 µM

---

For each entry below, report its TGI value.
# System: RXF 393 renal
# Experimental Protocol: NCI tumour cell line growth inhibition, 48 h

Enquiry: Please provide the recorded TGI for CCN=C=NCCCN(C)C , tested on RXF 393 renal.
Return: > 100 µM

Enquiry: Please provide the recorded TGI for CC1(C)C(=O)N(O)C(C)(C)N1N=O , tested on RXF 393 renal.
Return: > 10 µM

Enquiry: Please provide the recorded TGI for CCOC(=O)CCSS(=O)(=O)C(F)(F)F , tested on RXF 393 renal.
Return: > 100 µM

---

# Tested on: HL-60(TB) leukemia
# Experimental Protocol: NCI tumour cell line growth inhibition, 48 h
For each entry below, report its TGI value.
The answer is to be given in µM; state only the numeric part.

Enquiry: Requested field: TGI. Item: Cc1cc(C)c(S(=O)(=O)N(CCCCCCN)OCCCN)c(C)c1
Return: 33.3

Enquiry: Requested field: TGI. Item: COc1cc(/C=C2\N=C(c3ccccc3)N(c3nc4cc(C)c(C)cc4s3)C2=O)cc(OC)c1OC
Return: 39.7
